# credit: ChEMBL document CHEMBL5215003

- assay_notes: Cytotoxicity against human HepG2 cells assessed as reduction in cell viability incubated for 48 hrs by PrestoBlue reagent based assay
- Format: toxicity
CC50 at 48 h values, listed per item
experimental_endpoint: CC50 at 48 h

[[record]]
compound = "O=c1ccc2nccc3c4ccc(O)cc4n1c23"
result = "> 100 µM"

[[record]]
compound = "C=C1[C@@H](O)[C@@]2(O)OC[C@]34[C@H]2[C@@]2(C)[C@H](O)C(=O)C=C(C)[C@@H]2C[C@H]3OC(=O)[C@H](O)[C@@]14O"
result = "> 100 µM"

[[record]]
compound = "CC1=CC(=O)[C@@H](O)[C@]2(C)C3[C@@H](O)[C@@H]4OC(=O)[C@@H]([C@H]4C)[C@]3(C)C(=O)C[C@@H]12 (some centres undefined)"
result = "> 100 µM"

[[record]]
compound = "COc1ccc2c(c1)[nH]c1c(CCC(=O)O)nccc12"
result = "> 100 µM"

[[record]]
compound = "O=c1ccc2nccc3c4ccccc4n1c23"
result = "85.7 µM"

[[record]]
compound = "CC1=CC(=O)[C@@H](O)[C@]2(C)[C@H]3[C@]4(O)OC[C@@]35[C@@H](C[C@@H]12)OC(=O)C[C@H]5[C@](C)(O)[C@H]4O"
result = "86.7 µM"

[[record]]
compound = "CC1=CC(=O)[C@@H](O)[C@]2(C)[C@H]3[C@]4(O)OC[C@@]35[C@@H](C[C@@H]12)OC(=O)[C@H](O)[C@@]5(O)[C@]1(CO1)[C@H]4O"
result = "> 100 µM"

[[record]]
compound = "CCC(CC)COC(=O)[C@H](C)N[P@](=O)(OC[C@H]1O[C@@](C#N)(c2ccc3c(N)ncnn23)[C@H](O)[C@@H]1O)Oc1ccccc1"
result = "52.6 µM"

[[record]]
compound = "O=C(O)CCc1nccc2c1[nH]c1ccccc12"
result = "> 100 µM"


---

- assay_notes: Cytotoxicity against human MRC5 cells assessed as reduction in cell viability incubated for 48 hrs by PrestoBlue reagent based assay
- Assay type: toxicity
experimental_endpoint: CC50 at 48 h

[[record]]
molecule = "CC1=CC(=O)[C@@H](O)[C@]2(C)[C@H]3[C@]4(O)OC[C@@]35[C@@H](C[C@@H]12)OC(=O)[C@H](O)[C@@]5(O)[C@]1(CO1)[C@H]4O"
result = "> 100 µM"

[[record]]
molecule = "C=C1[C@@H](O)[C@@]2(O)OC[C@]34[C@H]2[C@@]2(C)[C@H](O)C(=O)C=C(C)[C@@H]2C[C@H]3OC(=O)[C@H](O)[C@@]14O [EURYCOMANONE]"
result = "> 100 µM"

[[record]]
molecule = "COc1ccc2c3ccnc4ccc(=O)n(c2c1)c43"
result = "> 100 µM"

[[record]]
molecule = "O=c1ccc2nccc3c4ccccc4n1c23 [CANTHIN-6-ONE]"
result = "91.2 µM"

[[record]]
molecule = "CCC(CC)COC(=O)[C@H](C)N[P@](=O)(OC[C@H]1O[C@@](C#N)(c2ccc3c(N)ncnn23)[C@H](O)[C@@H]1O)Oc1ccccc1 [REMDESIVIR]"
result = "> 100 µM"

[[record]]
molecule = "CC1=CC(=O)[C@@H](O)[C@]2(C)[C@H]3[C@]4(O)OC[C@@]35[C@@H](C[C@@H]12)OC(=O)C[C@H]5[C@](C)(O)[C@H]4O"
result = "9.99 µM"

[[record]]
molecule = "O=c1ccc2nccc3c4ccc(O)cc4n1c23"
result = "> 100 µM"

[[record]]
molecule = "CC1=CC(=O)[C@@H](O)[C@]2(C)C3[C@@H](O)[C@@H]4OC(=O)[C@@H]([C@H]4C)[C@]3(C)C(=O)C[C@@H]12 (stereo partly drawn)"
result = "31.2 µM"

[[record]]
molecule = "O=c1ccc2nccc3c4ccc(O[C@@H]5O[C@H](CO)[C@@H](O)[C@H](O)[C@H]5O)cc4n1c23"
result = "> 100 µM"

[[record]]
molecule = "O=C(O)CCc1nccc2c1[nH]c1ccccc12"
result = "> 100 µM"

[[record]]
molecule = "O=C(O)CCc1nccc2c1[nH]c1cc(O)ccc12"
result = "> 100 µM"

[[record]]
molecule = "COc1ccc2c(c1)[nH]c1c(CCC(=O)O)nccc12"
result = "> 100 µM"

[[record]]
molecule = "CC1=CC(=O)[C@@H](O)[C@]2(C)[C@H]3[C@]4(O)OC[C@@]35[C@@H](C[C@@H]12)OC(=O)[C@H](O)[C@@]5(O)[C@](C)(O)[C@H]4O"
result = "54.3 µM"


---

- Tested on: HCT-8
- assay_notes: Cytotoxicity against human HCT-8 cells assessed as redcution in cell viability at 10 uM incubated for 96 hrs by PrestoBlue reagent based assay relative to control
- Type: toxicity
- measurement_context: hct-8, 96 h
experimental_endpoint: Activity (%)

[[record]]
compound_structure_string = "O=C(O)CCc1nccc2c1[nH]c1cc(O)ccc12"
numeric_readout = 108.23

[[record]]
compound_structure_string = "O=c1ccc2nccc3c4ccc(O[C@@H]5O[C@H](CO)[C@@H](O)[C@H](O)[C@H]5O)cc4n1c23"
numeric_readout = 53.28

[[record]]
compound_structure_string = "C=C1[C@@H](O)[C@@]2(O)OC[C@]34[C@H]2[C@@]2(C)[C@H](O)C(=O)C=C(C)[C@@H]2C[C@H]3OC(=O)[C@H](O)[C@@]14O"
numeric_readout = 72.16

[[record]]
compound_structure_string = "CC1=CC(=O)[C@@H](O)[C@]2(C)[C@H]3[C@]4(O)OC[C@@]35[C@@H](C[C@@H]12)OC(=O)[C@H](O)[C@@]5(O)[C@]1(CO1)[C@H]4O"
numeric_readout = 100.88

[[record]]
compound_structure_string = "O=c1ccc2nccc3c4ccc(O)cc4n1c23"
numeric_readout = 49.3

[[record]]
compound_structure_string = "O=c1ccc2nccc3c4ccccc4n1c23"
numeric_readout = 55.55

